For each entry below, report its logP value.
Answers are plain numbers.

Worked cases, logP given:
CCC(C(=O)NC(N)=O)(C(=O)OC)c1ccccc1 (centres undefined) : 1.58
COC(C)(OC)c1ccc(C(O)(Cn2ccnc2)c2ccc(-c3ccncc3)cc2)cc1 (centres undefined) : 3.45
COc1ccc(Cc2cnc(N)nc2N)cc1N(C)C : 1.68
CCCc1ccc(CC(=O)O)cc1 : 3
O=C(O)c1ccc(Cl)cc1Nc1ccc(I)cc1 : 5.37
O=C(OOC(=O)c1ccccc1)c1ccccc1 : 3.46
O=c1[nH]nc(-c2ccccc2)c2ccccc12 : 2.48
CCC(C(=O)OCc1ccccc1)C(COC(=O)c1ccccc1)Cc1cncn1C (centres undefined) : 4.37

Field: logP. Fill in for each record below.
1. CC(=O)C(C(=O)ON=C(C)C12CC3CC(CC(C3)C1)C2)c1ccccc1 (centres undefined)
2. O=c1nc(-c2ccccc2)c2ccccc2[nH]1
3. COC(=O)Nc1ccc(Cl)c(Cl)c1

Output:
1: 4.64; 2: 1.91; 3: 3.32

Values from the OPERA property sets (Mansouri et al. 2018)
